- assay_details: Blood levels of compound in murine ClA model
- Format: in vivo
- experimental_conditions: male, DBA/1 LacJ, mouse, whole blood, 100 mg/kg b.i.d., 16 hours after dosing
- Procedure: The effect of the compound of Formula P was evaluated in a therapeutica ClA model. 100 DBA/1 LacJ male mice, ages 6-8 weeks were obtained from Jackson Laboratories. The mice were immunized at Day 0 as follows: 100 μg bovine type II collagen (Chondrex) in Complete Freund's adjuvant (CFA, Sigma) were injected into the mice. At Day 21, another 100 μg bovine type II collagen (Chondrex) in Incomplete Freund's Adjuvant (IFA, Sigma) was injected into the mice. […]
recorded_endpoint: concentration at 16 h (ng/mL)
The answer is to be given in ng/mL; state only the numeric part.

Ask: Recorded concentration at 16 h of CCN(CC)c1ncc(N(CC)S(=O)(=O)c2ccc(Cl)cc2)c(NC(Cc2ccc(OC(=O)N3CCCC3)cc2)C(=O)O)n1 (stereo not shown) [Formula P] , please.
Reply: 1000

The reported measurements were obtained from patent US20050074451A1.
